- Test System: UniProtKB Q6QLK5
- Sequence (Q6QLK5 whole entry, the tested form may be a part): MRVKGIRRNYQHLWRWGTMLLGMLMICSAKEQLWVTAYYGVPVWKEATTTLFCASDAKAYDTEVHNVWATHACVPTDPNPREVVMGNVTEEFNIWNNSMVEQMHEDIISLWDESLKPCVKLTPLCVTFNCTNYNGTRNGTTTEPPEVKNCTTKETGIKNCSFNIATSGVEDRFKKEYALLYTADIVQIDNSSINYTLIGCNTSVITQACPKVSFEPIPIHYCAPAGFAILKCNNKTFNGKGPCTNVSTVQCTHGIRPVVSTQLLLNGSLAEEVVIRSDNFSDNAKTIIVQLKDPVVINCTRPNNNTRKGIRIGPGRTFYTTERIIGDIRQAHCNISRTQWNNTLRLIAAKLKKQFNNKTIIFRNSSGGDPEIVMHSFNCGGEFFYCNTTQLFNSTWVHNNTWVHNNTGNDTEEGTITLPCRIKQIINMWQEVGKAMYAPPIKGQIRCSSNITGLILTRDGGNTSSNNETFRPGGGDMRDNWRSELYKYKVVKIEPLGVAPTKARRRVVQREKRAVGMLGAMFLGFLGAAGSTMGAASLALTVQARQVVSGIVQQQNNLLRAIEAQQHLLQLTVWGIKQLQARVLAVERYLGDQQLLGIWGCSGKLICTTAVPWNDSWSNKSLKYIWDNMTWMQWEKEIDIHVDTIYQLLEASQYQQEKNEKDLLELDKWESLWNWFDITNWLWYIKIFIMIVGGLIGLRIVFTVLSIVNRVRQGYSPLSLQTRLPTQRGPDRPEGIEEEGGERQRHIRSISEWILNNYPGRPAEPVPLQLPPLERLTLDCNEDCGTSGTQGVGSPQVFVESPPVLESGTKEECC
- Assay Method Text: inhibitors of HIV fusion peptide binding, primary screen, biochemical, uHTS, fluorescence dequenching (AID 1986)
Calls of active or inactive are those of the source. Rule as the data show it: actives have a measured IC50 and inactives only a lower limit.
Some molecules, each annotated with its measured IC50.

O=C(O)CSc1ncnc2c1sc1nc(-c3ccccc3)c3c(c12)CCC3 ... 28 µM (active)
CS(=O)(=O)C1=NSC2=NC(=O)/C(=C\c3ccc(OS(=O)(=O)c4ccccc4)cc3)C(=N)N21 ... 18.2 µM (active)
O=C(O)COc1ccc(/C=C/C(=O)c2ccc(C3CCCCC3)cc2)cc1 ... 17.7 µM (active)
COc1cc(/C=C2/SC(=S)N(CC(=O)O)C2=O)ccc1OCC(=O)Nc1ccc(C)c(C)c1 ... 17.9 µM (active)

Let us move to another entry and its IC50.
The observed IC50 for COc1ccc(/N=C2\S/C(=C\c3ccc(OC(C)C(=O)O)c(OC)c3)C(=O)N2CCc2c[nH]c3ccccc23)cc1 (stereo not given) when tested with UniProtKB Q6QLK5 stands at 18.9 µM (active)
